- system under test: human vasopressin V1a receptor (Homo sapiens)
- experiment description: Vasopressin V1a receptor binding assay
- condition description: selectivity for human V1b over human V1a, quotient of binding constants
experimental endpoint: Ki(h-V1a)/Ki(h-V1b)

[
  {
    "smiles notation": "CCOc1ncccc1[C@]1(NC(=O)N2CC3(CN(CCN4CCOCC4)C3)C2)C(=O)N(S(=O)(=O)c2ccccc2OC)c2ccc(C#N)cc21.O=C(O)C(F)(F)F",
    "experimental endpoint": "Ki(h-V1a)/Ki(h-V1b)",
    "meas value": "+++ (>75)"
  },
  {
    "smiles notation": "CCOc1ncccc1[C@]1(NC(=O)N2CC3(C2)CN(C2CCN(C(C)C)CC2)C3)C(=O)N(S(=O)(=O)c2ccc(F)cc2)c2ccc(C#N)cc21",
    "experimental endpoint": "Ki(h-V1a)/Ki(h-V1b)",
    "meas value": "+++ (>75)"
  }
]

---

- system under test: human vasopressin V1a receptor (Homo sapiens, UniProt P37288)
- Sequence (P37288 whole entry): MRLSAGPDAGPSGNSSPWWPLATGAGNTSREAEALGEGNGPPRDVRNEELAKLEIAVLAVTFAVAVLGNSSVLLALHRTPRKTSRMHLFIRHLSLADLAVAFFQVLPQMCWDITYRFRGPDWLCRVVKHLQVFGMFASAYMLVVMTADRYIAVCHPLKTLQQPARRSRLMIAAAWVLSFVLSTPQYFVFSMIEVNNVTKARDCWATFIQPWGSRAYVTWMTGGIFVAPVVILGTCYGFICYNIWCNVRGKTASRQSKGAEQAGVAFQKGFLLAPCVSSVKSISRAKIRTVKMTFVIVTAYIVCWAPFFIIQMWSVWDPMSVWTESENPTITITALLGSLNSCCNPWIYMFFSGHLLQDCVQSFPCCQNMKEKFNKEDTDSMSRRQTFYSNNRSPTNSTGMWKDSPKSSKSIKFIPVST
- experiment description: Vasopressin V1a receptor binding assay
- condition description: selectivity for human V1b over human V1a, quotient of binding constants

[
  {
    "molecule": "CCOc1ncccc1C1(NC(=O)N2CC3(CNC3)C2)C(=O)N(S(=O)(=O)c2ccc(OC)cc2OC)c2ccc(C#N)cc21.O=C(O)C(F)(F)F (stereo not drawn)",
    "system under test": "human vasopressin V1a receptor (Homo sapiens, UniProt P37288)",
    "Ki(h-V1a)/Ki(h-V1b)": "++ (25-75)"
  },
  {
    "molecule": "CCOc1ncccc1[C@]1(NC(=O)N2CC3(CN(CCN4CCOCC4)C3)C2)C(=O)N(S(=O)(=O)c2ccc(OC)cc2OC)c2ccc(C#N)cc21 [Example 7]",
    "system under test": "human vasopressin V1a receptor (Homo sapiens, UniProt P37288)",
    "Ki(h-V1a)/Ki(h-V1b)": "++ (25-75)"
  }
]

---

- system under test: UniProt:P47901
- experiment description: biochemical
- condition description: Ki(h-V1b)* [nM], CHO-K1 cell membranes, displacement of 3H-AVP
experimental endpoint: Ki

Check out these entries, answers already filled in.
[
  {
    "molecule": "CCOc1ncccc1[C@]1(NC(=O)N2CC3(CC(OCCN4CCOCC4)C3)C2)C(=O)N(S(=O)(=O)c2ccc(OC)cc2)c2ccc(C#N)cc21 [Example 21A]",
    "meas value": "10 to 100 nM"
  },
  {
    "molecule": "CCOc1ncccc1[C@]1(NC(=O)N2CC3(CN(CCN4CCOCC4)C3)C2)C(=O)N(S(=O)(=O)c2ccc(OC)cc2OC)c2ccc(C#N)cc21 [Example 15]",
    "meas value": "< 1 nM"
  },
  {
    "molecule": "CCOc1ncccc1[C@]1(NC(=O)N2CC3(CN(CCN4CCOCC4)C3)C2)C(=O)N(S(=O)(=O)c2ccc(OC)cc2)c2ccc(C#N)cc21.O=C(O)C(F)(F)F",
    "meas value": "< 1 nM"
  },
  {
    "molecule": "CCOc1ncccc1[C@]1(NC(=O)N2CC3(C2)CN(C2CCN(C(C)C)CC2)C3)C(=O)N(S(=O)(=O)c2ccc(C)cc2)c2ccc(C#N)cc21",
    "meas value": "10 to 100 nM"
  },
  {
    "molecule": "CCOc1ncccc1[C@]1(NC(=O)N2CC3(CN(CCN4CCOCC4)C3)C2)C(=O)N(S(=O)(=O)c2ccc(F)cc2OC)c2ccc(C#N)cc21",
    "meas value": "1 to 10 nM"
  }
]

CCOc1ncccc1C1(NC(=O)N2CCC3(CCN(C)CC3)CC2)C(=O)N(S(=O)(=O)c2ccc(OC)cc2OC)c2ccc(C#N)cc21 (stereo not shown) [Example 53, 2,2,2-trifluoroacetate] has a reported Ki of 10 to 100 nM

---

- system under test: UniProtKB P37288
- experiment description: Vasopressin V1a receptor binding assay
- condition description: selectivity for human V1b over human V1a, quotient of binding constants
experimental endpoint: Ki(h-V1a)/Ki(h-V1b)

[
  {
    "compound": "CCOc1ncccc1[C@]1(NC(=O)N2CC3(CN(CCN4CCOCC4)C3)C2)C(=O)N(S(=O)(=O)c2ccc(F)cc2OC)c2ccc(C#N)cc21 [Example 3]",
    "Ki(h-V1a)/Ki(h-V1b)": "+++ (>75)"
  },
  {
    "compound": "CCOc1ncccc1C1(NC(=O)N2CC3(CCNCC3)C2)C(=O)N(S(=O)(=O)c2ccc(OC)cc2OC)c2ccc(C#N)cc21.O=C(O)C(F)(F)F (centres unmarked)",
    "Ki(h-V1a)/Ki(h-V1b)": "++ (25-75)"
  },
  {
    "compound": "CCOc1ncccc1[C@]1(NC(=O)N2CC3(CN(CCN4CCOCC4)C3)C2)C(=O)N(S(=O)(=O)c2ccc(OC)cc2)c2ccc(C#N)cc21",
    "Ki(h-V1a)/Ki(h-V1b)": "+++ (>75)"
  },
  {
    "compound": "CCOc1ccccc1[C@]1(NC(=O)N2CC3(C2)CN(C2CCN(C)CC2)C3)C(=O)N(S(=O)(=O)c2ccc(OC)cc2OC)c2ccc(C#N)cc21 [Example 39B]",
    "Ki(h-V1a)/Ki(h-V1b)": "++ (25-75)"
  },
  {
    "compound": "CCOc1ncccc1C1(NC(=O)N2CC3(C2)CN(C2CCN(C(C)C)CC2)C3)C(=O)N(S(=O)(=O)c2ccc(OC)cc2OC)c2ccc(C#N)cc21 (racemic)",
    "Ki(h-V1a)/Ki(h-V1b)": "+++ (>75)"
  },
  {
    "compound": "CCOc1ccccc1[C@]1(NC(=O)N2CC3(C2)CN(C2CCN(C(C)C)CC2)C3)C(=O)N(S(=O)(=O)c2ccc(OC)cc2)c2ccc(C#N)cc21",
    "Ki(h-V1a)/Ki(h-V1b)": "+++ (>75)"
  },
  {
    "compound": "CCOc1ncccc1[C@]1(NC(=O)N2CC3(CN(CCCN4CCOCC4)C3)C2)C(=O)N(S(=O)(=O)c2ccc(OC)cc2)c2ccc(C#N)cc21",
    "Ki(h-V1a)/Ki(h-V1b)": "+++ (>75)"
  }
]

Sure, the documented Ki(h-V1a)/Ki(h-V1b) for "CCOc1ccccc1[C@]1(NC(=O)N2CC3(C2)CN(C2CCN(C(C)C)CC2)C3)C(=O)N(S(=O)(=O)c2ccc(C#N)cc2)c2ccc(C#N)cc21" is +++ (>75)

---

- system under test: human vasopressin V1b receptor (Homo sapiens, UniProt P47901)
- Sequence (P47901 whole entry): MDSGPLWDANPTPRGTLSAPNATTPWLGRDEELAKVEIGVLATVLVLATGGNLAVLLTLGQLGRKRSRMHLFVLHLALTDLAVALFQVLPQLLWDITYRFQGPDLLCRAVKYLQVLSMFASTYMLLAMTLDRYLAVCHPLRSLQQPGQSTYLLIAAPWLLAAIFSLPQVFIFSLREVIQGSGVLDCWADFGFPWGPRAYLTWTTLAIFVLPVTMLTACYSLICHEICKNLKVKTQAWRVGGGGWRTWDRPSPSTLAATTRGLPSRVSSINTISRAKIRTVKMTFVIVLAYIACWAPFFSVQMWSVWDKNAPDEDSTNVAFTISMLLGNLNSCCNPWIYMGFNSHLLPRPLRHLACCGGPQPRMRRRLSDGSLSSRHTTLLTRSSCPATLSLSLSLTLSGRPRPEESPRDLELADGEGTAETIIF
- condition description: read-out: Ki(h-V1b)*, CHO-K1 cell membranes, displacement of 3H-AVP
experimental endpoint: Ki

Please fill in: Ki reported for CCOc1ncccc1[C@]1(NC(=O)N2CC3(CN(CCN4CCOCC4)C3)C2)C(=O)N(S(=O)(=O)c2ccc(F)cc2OC)c2ccc(C#N)cc21 [Example 3] = 1 to 10 nM

---

- system under test: human vasopressin V1b receptor (Homo sapiens, UniProt P47901)
- experiment description: biochemical
- condition description: Ki(h-V1b)* [nM], CHO-K1 cell membranes, displacement of 3H-AVP
experimental endpoint: Ki

These recorded examples may help you get a feel for the data.
[
  {
    "molecule": "CCOc1ccccc1[C@]1(NC(=O)N2CC3(C2)CN(C2CCN(C(C)C)CC2)C3)C(=O)N(S(=O)(=O)c2ccc(C#N)cc2)c2ccc(C#N)cc21 [Example 42]",
    "Ki": "10 to 100 nM"
  },
  {
    "molecule": "CCOc1ncccc1[C@]1(NC(=O)C2CC3(CNC3)C2)C(=O)N(S(=O)(=O)c2ccc(OC)cc2)c2ccc(C#N)cc21 [Example 44]",
    "Ki": "10 to 100 nM"
  }
]

# molecule CCOc1ncccc1C1(NC(=O)C2CCC3(CCNCC3)CC2)C(=O)N(S(=O)(=O)c2ccc(OC)cc2OC)c2ccc(C#N)cc21 (stereo not drawn) [Example 52, 2,2,2-trifluoroacetate] ; its Ki = 1 to 10 nM

Given item CCOc1ncccc1[C@]1(NC(=O)N2CC3(CN(CCN4CCOCC4)C3)C2)C(=O)N(S(=O)(=O)c2ccc(C#N)cc2)c2ccc(C#N)cc21 [Example 5] , the value recorded as its Ki is 10 to 100 nM

Recorded Ki (molecule CCOc1ncccc1C1(NC(=O)C2CC3(CNC3)C2)C(=O)N(S(=O)(=O)c2ccc(OC)cc2OC)c2ccc(C#N)cc21 (stereo not drawn) [Example 57, 2,2,2-trifluoroacetate] ): 10 to 100 nM

For record CCOc1ncccc1C1(NC(=O)N2CC3(CNC3)C2)C(=O)N(S(=O)(=O)c2ccc(OC)cc2OC)c2ccc(C#N)cc21.O=C(O)C(F)(F)F (stereo not drawn) [Example 58, 2,2,2-trifluoroacetate] the listed Ki is 10 to 100 nM
